Please respond with reported TGI for every item in the list.
system: SNB-75 CNS; assay: NCI tumour cell line growth inhibition, 48 h

Below, 5 molecules whose answers are already recorded.
INSERT INTO assay_data (molecule, observed_measurement) VALUES
  ('CC(C)CC12CC3CCC(CNC1=O)C32C (stereo unspecified)', '> 100 µM'),
  ('CN(C)c1ccc(/C=C/C(=O)O)cc1', '> 100 µM'),
  ('COC(=O)[C@H](C)NC(=O)[C@@H](OC)[C@@H]1Cc2cc3cc(OC4CC(OC5CC(O)C(O)C(C)O5)C(O)C(C)O4)c(C)c(O)c3c(O)c2C(=O)[C@H]1OC1CC(OC2CC(OC3CC(C)(O)C(O)C(C)O3)C(O)C(C)O2)C(O)C(C)O1 (stereo partly specified)', '0.774 µM'),
  ('NC(=O)c1ccccc1NC(=O)c1ccccc1Cl', '> 100 µM'),
  ('CC(=O)Oc1cc(OC(C)=O)c2c(C)cc(=O)oc2c1', '> 100 µM');

TGI measured on C[n+]1c2ccccc2c(/C=N\NS(=O)(=O)c2ccc(Cl)cc2)c2ccccc21 = > 100 µM

----------
Please respond with reported TGI for every item in the list.
tested on: SN12C renal; assay: NCI tumour cell line growth inhibition, 48 h

Below, 3 compounds whose answers are already recorded.
INSERT INTO measurements (compound, test_system, observed_measurement) VALUES
  ('COc1cc(OC2OC(COC(=O)c3cc(O)c(O)c(O)c3)C(O)C(O)C2O)ccc1O (stereo unspecified)', 'SN12C renal', '> 100 µM'),
  ('CC(=O)OCC12CCC3C4(C)CCCC(C)(C)C4CCC3(C)C1CC(C1=CC(=O)OC1O)O2 (stereo unspecified)', 'SN12C renal', '3.09 µM'),
  ('CC1=CCC[C@H]2[C@](C)(CC3=CC(=O)C(Sc4ccccc4)=CC3=O)[C@@H](C)CC[C@]12C', 'SN12C renal', '31.6 µM');

Provide the reported TGI of each entry below, same order.
1. C=C1CCCC2[C@](C)(CC3=C(O)C(=O)C=C(OC)C3=O)[C@@H](C)CC[C@]12C (stereo partly specified)
2. O=C1CS[C@@](CC(c2ccc(Cl)cc2)c2ccc(Cl)cc2)(c2ccc(Cl)cc2)N1
3. COC(=O)c1cccc(OC)c1C#Cc1c(OC)cccc1OC
4. COc1ccccc1C1(C)SCc2nc3ccccc3n21 (stereo unspecified)
5. CC(=O)Oc1cc(OC(C)=O)c2c(C)cc(=O)oc2c1
6. Cn1ccnc1CCc1ccc(Cl)c(Cl)c1
7. NC(CC(O)(c1ccccc1)c1ccccc1)c1ccccc1S (stereo unspecified)

a:
["> 100 µM", "5.42 µM", "> 100 µM", "> 10 µM", "> 100 µM", "> 100 µM", "44.1 µM"]

TGI measured on CNC1=C(C(=O)OC)SC(c2ccccc2)(c2ccccc2)SC1 = > 100 µM

----------
tested on: SK-OV-3 ovarian; test: NCI tumour cell line growth inhibition, 48 h; in the data active = GI50 below about 0.43 µM; inactive = the rest
Respond only with the outcome that fits, drawn from active, inactive

INSERT INTO measurements (compound, class_name) VALUES
  ('COc1ccc(-c2cc(-c3cccc(NS(C)(=O)=O)c3)nc(N)c2C#N)cc1', 'active'),
  ('CC(C)C[C@H](NC(=O)CCn1ccc2ncccc2c1=O)B(O)O', 'inactive'),
  ('CCCCCCCCCCCCCCCCCCOc1ccccc1CC(=O)NCC[N+](C)(C)C', 'inactive'),
  ('CNC1=C(C(=O)OC)SC(c2ccccc2)(c2ccccc2)SC1', 'inactive'),
  ('C=C(CNC(=O)c1ccccc1)c1ccc(C(=O)Nc2ccccc2N)cc1', 'inactive');

q: Answer briefly: the call reported for COc1cc(C2CC(=O)Nc3c2ccc2ccccc32)cc(Br)c1OC (stereo not drawn) in this assay.
a: inactive

q: Answer briefly: the call reported for Cc1ccc2nc(-c3ccc(N)c4ccccc34)[nH]c2c1 in this assay.
a: active

q: Answer briefly: the call reported for Cc1cc(C)c(S(=O)(=O)N(CCc2cccc(Br)c2)Cc2ccc(-c3cccc(S(C)(=O)=O)c3)cc2)c(C)c1 in this assay.
a: inactive

----------
tested on: MOLT-4 leukemia; experiment: NCI tumour cell line growth inhibition, 48 h
measured endpoint: GI50

INSERT INTO assay_data (smiles_code, observed_measurement) VALUES
  ('Cc1nc2c(N3CCCC3)nc(N3CCNCC3)nc2nc1NCc1ccccc1', '3.34 µM');

Provide the reported GI50 of each entry below, same order.
1. O=C(CCSc1ccnc2c(C(F)(F)F)cccc12)N/N=C/c1cc(Cl)c(Cl)cc1Cl
2. NC(=O)c1ccccc1NC(=O)c1ccccc1Cl
3. COc1c(Cl)ccc2c(-c3nc4cc(Cl)c(F)cc4s3)cc(=O)oc12
4. CC(C)C(=O)[O-].CC(C)C(=O)[O-].N.N.N.N.[Co+3].[O-][Cl+3]([O-])([O-])[O-]

a:
1: 32.2 µM; 2: > 100 µM; 3: 4.1 µM; 4: > 100 µM

----------
tested on: A498 renal; assay: NCI tumour cell line growth inhibition, 48 h
TGI vs 30 µM: at or above is yes (1), below is no (0).

INSERT INTO results (compound, test_system, class_name) VALUES
  ('COP(=O)(O)C(N)Cc1c[nH]c2ccccc12 (stereo not given)', 'A498 renal', 'yes (1)'),
  ('CC(C)C(=O)[O-].CC(C)C(=O)[O-].N.N.N.N.[Co+3].[O-][Cl+3]([O-])([O-])[O-]', 'A498 renal', 'yes (1)'),
  ('CN(C)CCNC(=O)c1ccc(Cl)c2cc3ccccc3nc12', 'A498 renal', 'no (0)'),
  ('COc1ccc2c(c1)c1nn(CCN3CCCCC3)c3ccc4c(=O)n(CCN(C)C)c(=O)n2c4c13', 'A498 renal', 'no (0)'),
  ('O=[N+]([O-])c1ccc(O)c(/C=N/c2nc(-c3ccccc3)cs2)c1', 'A498 renal', 'yes (1)');

q: Kindly determine if TGI recorded for O=C(N/C(=C\c1ccc(/C=C(\NC(=O)c2ccccc2)c2nc3ccccc3s2)cc1)c1nc2ccccc2s1)c1ccccc1 is above or exactly 30 µM.
a: yes (1)

q: Kindly determine if TGI recorded for S=c1sc2cscc2s1 is above or exactly 30 µM.
a: yes (1)

q: Kindly determine if TGI recorded for Clc1cc(-c2ccccc2)nc2ccccc12 is above or exactly 30 µM.
a: yes (1)

q: Kindly determine if TGI recorded for O=C1CS[C@@](CC(c2ccc(Cl)cc2)c2ccc(Cl)cc2)(c2ccc(Cl)cc2)N1 is above or exactly 30 µM.
a: yes (1)

q: Kindly determine if TGI recorded for O=C(COc1cccc(/C=C2\Oc3ccc4ccccc4c3C2=O)c1)c1ccc(Cl)cc1 is above or exactly 30 µM.
a: yes (1)

----------
system: SK-MEL-5 melanoma; experiment: NCI tumour cell line growth inhibition, 48 h
Please respond with reported TGI for every item in the list.

Provide the reported TGI of each entry below, same order.
1. CCCCCN(CCCCC)CC(C)(C)C(O)c1ccc(OC)c2ccccc12 (stereo not drawn)
2. COc1ccc(Cn2cc3c(c2-c2cc(OC)c(OC)c(OC)c2)CCc2cnoc2-3)cc1N
3. COc1ccc2c(c1)c(-c1ccc(-c3cn(C)c4ccc(OC)cc34)[nH]1)cn2C
4. Cc1ccc(S(=O)(=O)N/N=C2/CCC(C(C)(C)C)CC2Br)cc1 (stereo not drawn)
5. COC12CCC(C(C(=O)c3ccccc3)=C1C(=O)c1ccccc1)C(O)C2 (stereo not drawn)
6. N#CC[N+]1(Cc2ccccn2)CCCC1

a:
12.8 µM
1.24 µM
14.4 µM
29.5 µM
> 100 µM
> 100 µM

Provide the reported TGI of each entry below, same order.
1. O=C(c1ccc(O)c([N+](=O)[O-])c1)c1ccc(O)c([N+](=O)[O-])c1
2. COc1cc(F)c(/C=C/c2cc(/C=C/c3cc(OC)c(OC)cc3F)n(-c3cc(F)cc(F)c3)n2)cc1OC
3. COC(=O)NC(Cc1ccccc1)NC(C)=O (stereo not drawn)
4. Cc1ccc(C=NC23CC4CC(CC(C4)C2)C3)cc1

a:
1: > 100 µM; 2: 9.38 µM; 3: > 100 µM; 4: > 100 µM

Provide the reported TGI of each entry below, same order.
1. O=c1cccccc1[O-].O=c1cccccc1[O-].O=c1cccccc1[O-].[Ce+3]
2. O=C1CS[C@@](CC(c2ccc(Cl)cc2)c2ccc(Cl)cc2)(c2ccc(Cl)cc2)N1
3. CC1(C)CC([P+](c2ccccc2)(c2ccccc2)c2ccccc2)=NN1
4. CSc1ccc(SC2c3ccc(C)cc3Oc3nc(N)c(C#N)c(N)c32)cc1 (stereo not drawn)
5. CCOC(=O)N1C(c2ccccc2)C=CC(c2ccccc2)N1C(=O)OCC (stereo not drawn)
6. N#Cc1nc2c(S(=O)(=O)c3ccccc3)c(N)n(Cc3ccc(Cl)cc3)c2nc1C#N
7. CC(=O)Oc1cc(OC(C)=O)c2c(C)cc(=O)oc2c1
8. CCOC(=O)c1[nH]c2cccc3c2c1CC[C@H](NC(=O)C(F)(F)F)C3=O

a:
["38.8 µM", "34.6 µM", "17.7 µM", "3.15 µM", "> 100 µM", "> 50 µM", "> 100 µM", "> 100 µM"]
